# System: Pectobacterium carotovorum
# MEASUREMENT_NOTES: microbe, parasite or virus in culture
# Format: functional
# COND: ATCC 15713, time 48 hrs
# Description: Antibiofilm activity against Pectobacterium carotovorum ATCC 15713 assessed as inhibition of bacterial metabolism within the biofilm at 8 ug/ml measured after 48 hrs by MTT assay relative to control
Each entry below lists one item and its recorded inhibition at 8 µg/mL value.
Your answer should be a plain number; it is taken to be in %.

[[record]]
molecule = "CO[C@@H]1c2cc(C(C)C)c(O)c(O)c2[C@@]23CCCC(C)(C)[C@@H]2[C@@H]1OC3=O"
system = "Pectobacterium carotovorum"
measurement_unit = "%"
result = 5.7


Req: Notebook: pull reported inhibition at 8 µg/mL for Pectobacterium carotovorum, entry `CC(C)c1cc2c(c(O)c1O)[C@@]1(C(=O)O)CCCC(C)(C)[C@@H]1CC2`
Resp: 47.3

----------
Each entry below lists one item and its recorded inhibition at 8 µg/mL value.
# Test system: Acinetobacter baumannii
# MEASUREMENT_NOTES: microbe, parasite or virus in culture
# Assay type: functional
# COND: ATCC 19606 = CIP 70.34 = JCM 6841, time 48 hrs
# Description: Antibiofilm activity against Acinetobacter baumannii ATCC 19606 assessed as inhibition of biofilm formation at 8 ug/ml measured after 48 hrs by crystal violet staining based assay relative to control
Your answer should be a plain number; it is taken to be in %.

Req: Could you share which inhibition at 8 µg/mL value was measured for CC(C)c1cc2c(c(O)c1O)[C@@]13CCCC(C)(C)[C@@H]1[C@H](OC3=O)[C@H]2O [ROSMANOL] ?
Resp: 55.5

Req: Could you share which inhibition at 8 µg/mL value was measured for CCCCCC [HEXANE] ?
Resp: 48.5

Req: Could you share which inhibition at 8 µg/mL value was measured for `CO[C@@H]1c2cc(C(C)C)c(O)c(O)c2[C@@]23CCCC(C)(C)[C@@H]2[C@@H]1OC3=O` ?
Resp: 21

Req: Could you share which inhibition at 8 µg/mL value was measured for CC(C)c1cc2c(c(O)c1O)[C@@]1(C(=O)O)CCCC(C)(C)[C@@H]1CC2 [CARNOSIC ACID] ?
Resp: 91.2

Req: Could you share which inhibition at 8 µg/mL value was measured for CC(C)c1cc2c(c(O)c1O)[C@@]13CCCC(C)(C)[C@@H]1C[C@@H]2OC3=O [CARNOSOL] ?
Resp: 47.2

Req: Could you share which inhibition at 8 µg/mL value was measured for `CC(C)c1cc2c(c(O)c1O)C[C@@]1(O)[C@@H](O)CCC(C)(C)[C@@H]1CC2` ?
Resp: 51.7

Req: Could you share which inhibition at 8 µg/mL value was measured for CC(C)c1cc2c(c(O)c1O)[C@@]13CCCC(C)(C)[C@@H]1[C@H](OC3=O)[C@@H]2O [EPIROSMANOL] ?
Resp: 56.9

Req: Could you share which inhibition at 8 µg/mL value was measured for CC(C)c1cc2c(c(O)c1O)[C@@]13CCCC(C)(C)[C@@H]1[C@@H](O)[C@@H]2OC3=O [ISOROSMANOL] ?
Resp: 43.9

----------
# Test system: Pseudomonas aeruginosa
# MEASUREMENT_NOTES: microbe, parasite or virus in culture
# Type: functional
# COND: ATCC 50071, time 48 hrs
# Description: Antibiofilm activity against Pseudomonas aeruginosa ATCC 50071 assessed as inhibition of biofilm formation at 8 ug/ml measured after 48 hrs by crystal violet staining based assay relative to control
PROPERTY_NAME: inhibition at 8 µg/mL (%)
Your answer should be a plain number; it is taken to be in %.

Req: Notebook: pull reported inhibition at 8 µg/mL for Pseudomonas aeruginosa, entry `CO[C@H]1c2cc(C(C)C)c(O)c(O)c2[C@@]23CCCC(C)(C)[C@@H]2[C@@H]1OC3=O`
Resp: 84.7

Req: Notebook: pull reported inhibition at 8 µg/mL for Pseudomonas aeruginosa, entry COc1c(C(C)C)cc2c(c1O)[C@]1(C(=O)O)CCCC(C)(C)[C@@H]1CC2 (relative stereo)
Resp: 46.8

Req: Notebook: pull reported inhibition at 8 µg/mL for Pseudomonas aeruginosa, entry `CC(C)c1cc2c(cc1O)[C@@]1(C)CCCC(C)(C)[C@@H]1CC2`
Resp: 53.2

Req: Notebook: pull reported inhibition at 8 µg/mL for Pseudomonas aeruginosa, entry `C=C(C)[C@@H]1CC[C@]2(C(=O)O)CC[C@]3(C)[C@H](CC[C@@H]4[C@@]5(C)CC[C@H](O)C(C)(C)[C@@H]5CC[C@]43C)[C@@H]12`
Resp: 63.4
